test: Cytotoxicity against mouse B16F10 cells assessed as cell viability at 200 uM by MTT assay; assay type: cell-based, B16-F10; settings: read-out: Activity
Measurement name: viability at 200 µM

Consider the compound `O=c1c(O[C@@H]2O[C@H](CO)[C@@H](O)[C@H](O)[C@H]2O)c(-c2ccc(O)c(O)c2)oc2cc(O[C@@H]3O[C@H](CO)[C@@H](O)[C@H](O)[C@H]3O)cc(O)c12` and give its measured viability at 200 µM.
114%

Consider the compound O=c1c(O[C@@H]2O[C@H](CO)[C@@H](O)[C@H](O)[C@H]2O)c(-c2ccc(O)c(O)c2)oc2cc(O)cc(O)c12 [ISOQUERCETIN] and give its measured viability at 200 µM.
68.4%

Consider the compound `O=c1c(O[C@@H]2O[C@H](CO)[C@@H](O)[C@H](O)[C@H]2O)c(-c2ccc(O[C@@H]3O[C@H](CO)[C@@H](O)[C@H](O)[C@H]3O)c(O)c2)oc2cc(O)cc(O)c12` and give its measured viability at 200 µM.
77.4%

Consider the compound `O=c1c(O[C@@H]2O[C@H](CO)[C@@H](O[C@@H]3O[C@H](CO)[C@@H](O)[C@H](O)[C@H]3O)[C@H](O)[C@H]2O)c(-c2ccc(O[C@@H]3O[C@H](CO)[C@@H](O)[C@H](O)[C@H]3O)c(O)c2)oc2cc(O)cc(O)c12` and give its measured viability at 200 µM.
74.8%

Consider the compound `O=c1c(O[C@@H]2O[C@H](CO)[C@@H](O[C@@H]3O[C@H](CO)[C@@H](O)[C@H](O)[C@H]3O)[C@H](O)[C@H]2O)c(-c2ccc(O)c(O)c2)oc2cc(O[C@@H]3O[C@H](CO)[C@@H](O)[C@H](O)[C@H]3O)cc(O)c12` and give its measured viability at 200 µM.
98.7%

Consider the compound `O=c1c(O[C@@H]2O[C@H](CO)[C@@H](O[C@@H]3O[C@H](CO)[C@@H](O)[C@H](O)[C@H]3O)[C@H](O)[C@H]2O)c(-c2ccc(O[C@@H]3O[C@H](CO)[C@@H](O[C@@H]4O[C@H](CO)[C@@H](O)[C@H](O)[C@H]4O)[C@H](O)[C@H]3O)c(O)c2)oc2cc(O)cc(O)c12` and give its measured viability at 200 µM.
99.7%

---

Assign Activity to each entry below.
system: B16-F10; experiment: Induction of melanogenesis in mouse B16F10 cells assessed as intracellular melanin level at 200 uM after 72 hrs; format: functional
Give the value, in units of %, as a plain number.

Consider the molecule `O=c1c(O[C@@H]2O[C@H](CO)[C@@H](O[C@@H]3O[C@H](CO)[C@@H](O)[C@H](O)[C@H]3O)[C@H](O)[C@H]2O)c(-c2ccc(O)c(O)c2)oc2cc(O[C@@H]3O[C@H](CO)[C@@H](O)[C@H](O)[C@H]3O)cc(O)c12` and give its measured Activity.
119

Consider the molecule `O=c1c(O[C@@H]2O[C@H](CO)[C@@H](O)[C@H](O)[C@H]2O)c(-c2ccc(O[C@@H]3O[C@H](CO)[C@@H](O[C@@H]4O[C@H](CO)[C@@H](O)[C@H](O)[C@H]4O)[C@H](O)[C@H]3O)c(O)c2)oc2cc(O)cc(O)c12` and give its measured Activity.
96.3

Consider the molecule O=c1c(O[C@@H]2O[C@H](CO)[C@@H](O)[C@H](O)[C@H]2O)c(-c2ccc(O)c(O)c2)oc2cc(O)cc(O)c12 [ISOQUERCETIN] and give its measured Activity.
206.9

Consider the molecule `O=c1c(O[C@@H]2O[C@H](CO)[C@@H](O[C@@H]3O[C@H](CO)[C@@H](O)[C@H](O)[C@H]3O)[C@H](O)[C@H]2O)c(-c2ccc(O)c(O)c2)oc2cc(O[C@@H]3O[C@H](CO)[C@@H](O[C@@H]4O[C@H](CO)[C@@H](O)[C@H](O)[C@H]4O)[C@H](O)[C@H]3O)cc(O)c12` and give its measured Activity.
102.6

Consider the molecule `O=c1c(O[C@@H]2O[C@H](CO)[C@@H](O[C@@H]3O[C@H](CO)[C@@H](O)[C@H](O)[C@H]3O)[C@H](O)[C@H]2O)c(-c2ccc(O)c(O)c2)oc2cc(O)cc(O)c12` and give its measured Activity.
176

Consider the molecule `O=c1c(O[C@@H]2O[C@H](CO)[C@@H](O)[C@H](O)[C@H]2O)c(-c2ccc(O)c(O)c2)oc2cc(O[C@@H]3O[C@H](CO)[C@@H](O)[C@H](O)[C@H]3O)cc(O)c12` and give its measured Activity.
86.5

Consider the molecule `O=c1c(O[C@@H]2O[C@H](CO)[C@@H](O[C@@H]3O[C@H](CO)[C@@H](O)[C@H](O)[C@H]3O)[C@H](O)[C@H]2O)c(-c2ccc(O[C@@H]3O[C@H](CO)[C@@H](O[C@@H]4O[C@H](CO)[C@@H](O)[C@H](O)[C@H]4O)[C@H](O)[C@H]3O)c(O)c2)oc2cc(O)cc(O)c12` and give its measured Activity.
99.7
